target: Na^+/H^+-Exchangers von Kaninchenerythrocyten (Oryctolagus cuniculus, UniProt P23791); construct: den Na^+-Influx in die Erythrocyten via Na^+/H^+-Austausch flammenphotometrisch bestimmen zu können; assay: Inhibition of the Na+/H+ exchanger of rabbit erythrocytes (amiloride-sensitive sodium influx, flame photometry); conditions: hyperosmolar salt-sucrose medium, pH 7,4, 37°C, read-out: IC50 Inhibition des Na^+/H^+-Exchangers
Sequence (P23791 whole entry): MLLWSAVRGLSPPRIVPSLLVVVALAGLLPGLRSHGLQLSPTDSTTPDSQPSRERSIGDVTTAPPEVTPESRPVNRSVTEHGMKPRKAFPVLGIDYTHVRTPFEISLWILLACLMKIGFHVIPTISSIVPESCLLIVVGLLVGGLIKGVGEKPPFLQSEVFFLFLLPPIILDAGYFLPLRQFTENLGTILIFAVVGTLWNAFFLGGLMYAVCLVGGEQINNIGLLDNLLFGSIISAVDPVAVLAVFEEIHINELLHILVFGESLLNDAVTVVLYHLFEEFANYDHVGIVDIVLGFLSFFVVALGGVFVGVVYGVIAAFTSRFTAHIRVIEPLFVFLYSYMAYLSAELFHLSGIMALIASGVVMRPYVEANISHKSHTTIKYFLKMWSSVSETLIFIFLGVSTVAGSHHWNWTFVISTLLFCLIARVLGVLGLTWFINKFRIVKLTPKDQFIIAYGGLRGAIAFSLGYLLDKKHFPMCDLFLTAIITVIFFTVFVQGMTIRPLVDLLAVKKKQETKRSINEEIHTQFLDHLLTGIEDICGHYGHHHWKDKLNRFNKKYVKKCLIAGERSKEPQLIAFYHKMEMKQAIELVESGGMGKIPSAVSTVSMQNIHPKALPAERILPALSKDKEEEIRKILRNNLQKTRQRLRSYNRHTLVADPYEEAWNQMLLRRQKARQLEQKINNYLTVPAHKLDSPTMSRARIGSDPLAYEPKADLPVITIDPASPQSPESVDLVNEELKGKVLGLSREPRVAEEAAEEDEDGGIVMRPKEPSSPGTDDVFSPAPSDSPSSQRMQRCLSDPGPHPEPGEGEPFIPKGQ
pIC50: −log10 of the molar value. Structures can show the parent of a compound that is named as a salt.

{"molecule": "NC(N)=NC(=O)c1c(F)cccc1C(F)(F)F", "censoringSign": "=", "pIC50": 5.00}
{"molecule": "N=C(N)NC(=O)c1c(Cl)cccc1Cl [Beispiel 1, 2,6-Dichlor-benzoylguanidin-hydrochlorid]", "censoringSign": "=", "pIC50": 5.00}
{"molecule": "NC(N)=NC(=O)c1c(F)c(F)c(O)c(F)c1F", "censoringSign": "=", "pIC50": 6.52}
{"molecule": "NC(N)=NC(=O)c1c(F)cccc1F [Beispiel 4, 2,6-Difluor-benzoylguanidin-hydrochlorid]", "censoringSign": "<", "pIC50": 5.00}
{"molecule": "COc1ccc(C(F)(F)F)c(OC)c1C(=O)N=C(N)N", "censoringSign": "<", "pIC50": 5.00}
{"molecule": "COc1ccc(Cl)c(OC)c1C(=O)N=C(N)N", "censoringSign": "=", "pIC50": 5.07}
